Molecular target: DGKζ (Homo sapiens)
Construct: His
Assay: In vitro DGKζ inhibition assay (ADP-Glo)
Details: His-tagged human recombinant DGKζ 0.4 nM, 30 μM ATP, 20 μM DLG, 90 minute incubation
pIC50: −log10 of the molar value.
Observation type: pIC50

These solved cases illustrate the format of a correct answer.
Compound | pIC50
Cc1ccc2c(n1)c1c(c(=O)n2C)N(C)C(=O)[C@H]2CN(C(c3ccc(F)cc3)c3ccc(F)cc3)[C@H](C)CN12 [Example 5] | < 5.70
C[C@@H]1CN2c3c(c(=O)n(C)c4ccc(-c5cnn(C)c5)nc34)N(C)C(=O)[C@H]2CN1C(c1ccc(F)cc1)c1ccc(F)cc1 [Example 8] | < 5.70

QUERY: Which pIC50 is reported for this compound? COc1ccc2c(n1)c1c(c(=O)n2C)N(C)C(=O)[C@H]2CN(C(c3ccc(F)cc3)c3ccc(F)cc3)[C@H](C)CN12 [Example 7]
RESULT: < 5.70

---

Biological target: DGKζ (Homo sapiens, UniProt Q13574)
Construct: His
Sequence (Q13574 whole entry): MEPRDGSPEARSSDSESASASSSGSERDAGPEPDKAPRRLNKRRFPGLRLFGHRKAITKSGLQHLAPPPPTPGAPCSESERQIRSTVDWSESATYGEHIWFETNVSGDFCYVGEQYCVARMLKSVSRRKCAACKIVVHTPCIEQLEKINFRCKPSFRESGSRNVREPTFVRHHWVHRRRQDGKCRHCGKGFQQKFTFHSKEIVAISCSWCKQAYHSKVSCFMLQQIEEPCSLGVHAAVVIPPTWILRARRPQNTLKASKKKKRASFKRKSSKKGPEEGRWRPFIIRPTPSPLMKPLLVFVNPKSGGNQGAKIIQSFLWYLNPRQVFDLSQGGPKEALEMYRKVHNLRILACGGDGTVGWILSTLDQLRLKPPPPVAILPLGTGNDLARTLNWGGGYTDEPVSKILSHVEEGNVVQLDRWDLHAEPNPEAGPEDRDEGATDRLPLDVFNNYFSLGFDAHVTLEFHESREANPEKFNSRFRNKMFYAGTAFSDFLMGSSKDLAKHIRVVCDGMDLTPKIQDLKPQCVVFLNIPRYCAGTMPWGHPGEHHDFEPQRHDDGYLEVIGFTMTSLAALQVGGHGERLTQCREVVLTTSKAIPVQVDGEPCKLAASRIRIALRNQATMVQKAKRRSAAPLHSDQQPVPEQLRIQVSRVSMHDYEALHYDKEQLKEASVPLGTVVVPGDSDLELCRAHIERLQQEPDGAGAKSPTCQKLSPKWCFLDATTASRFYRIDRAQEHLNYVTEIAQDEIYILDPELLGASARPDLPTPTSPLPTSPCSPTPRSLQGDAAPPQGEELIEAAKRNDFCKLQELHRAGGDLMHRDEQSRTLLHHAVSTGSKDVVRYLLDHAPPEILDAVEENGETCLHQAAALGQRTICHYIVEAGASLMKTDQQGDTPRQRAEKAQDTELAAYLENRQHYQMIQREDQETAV
Assay: In vitro DGKζ inhibition assay (ADP-Glo)
Details: His-tagged human recombinant DGKζ 0.4 nM, 30 μM ATP, 20 μM DLG, 90 minute incubation
pIC50: −log10 of the molar value.
Observation type: pIC50

Consider the following items and state reported pIC50 for each.
1. C[C@@H]1CN2c3c(c(=O)n(C)c4ccccc34)N(C)C(=O)[C@H]2CN1C(c1ccc(F)cc1)c1ccc(F)cc1
2. COCCN1C(=O)[C@H]2CN(C(c3ccc(F)cc3)c3ccc(F)cc3)[C@H](C)CN2c2c1c(=O)n(C)c1ccc(C#N)nc21
3. C[C@@H]1CN2c3c(c(=O)n(C)c4ccc(C#N)nc34)N(C)C(=O)[C@H]2CN1C(c1ccc(F)cc1)c1ccc(F)cc1
4. C[C@@H]1CN2c3c(c(=O)n(C)c4ccc(F)nc34)N(C)C(=O)[C@H]2CN1C(c1ccc(F)cc1)c1ccc(F)cc1

RESULT:
1: < 5.70; 2: 5.70 to 6.70; 3: 5.70 to 6.70; 4: 5.70 to 6.70

Record pIC50 for all entries; do not skip any.
1. C[C@@H]1CN2c3c(c(=O)n(C)c4ccc(=O)[nH]c34)N(C)C(=O)[C@H]2CN1C(c1ccc(F)cc1)c1ccc(F)cc1
2. C[C@@H]1CN2c3c(c(=O)n(C)c4ccc(CC#N)nc34)N(C)C(=O)[C@H]2CN1C(c1ccc(F)cc1)c1ccc(F)cc1

RESULT:
["< 5.70", "≥ 7.40"]

---

Kindly supply the reported IC50 values for the records listed here.
Target: DGKα (Homo sapiens, UniProt P23743)
Construct: His
Sequence (P23743 whole entry): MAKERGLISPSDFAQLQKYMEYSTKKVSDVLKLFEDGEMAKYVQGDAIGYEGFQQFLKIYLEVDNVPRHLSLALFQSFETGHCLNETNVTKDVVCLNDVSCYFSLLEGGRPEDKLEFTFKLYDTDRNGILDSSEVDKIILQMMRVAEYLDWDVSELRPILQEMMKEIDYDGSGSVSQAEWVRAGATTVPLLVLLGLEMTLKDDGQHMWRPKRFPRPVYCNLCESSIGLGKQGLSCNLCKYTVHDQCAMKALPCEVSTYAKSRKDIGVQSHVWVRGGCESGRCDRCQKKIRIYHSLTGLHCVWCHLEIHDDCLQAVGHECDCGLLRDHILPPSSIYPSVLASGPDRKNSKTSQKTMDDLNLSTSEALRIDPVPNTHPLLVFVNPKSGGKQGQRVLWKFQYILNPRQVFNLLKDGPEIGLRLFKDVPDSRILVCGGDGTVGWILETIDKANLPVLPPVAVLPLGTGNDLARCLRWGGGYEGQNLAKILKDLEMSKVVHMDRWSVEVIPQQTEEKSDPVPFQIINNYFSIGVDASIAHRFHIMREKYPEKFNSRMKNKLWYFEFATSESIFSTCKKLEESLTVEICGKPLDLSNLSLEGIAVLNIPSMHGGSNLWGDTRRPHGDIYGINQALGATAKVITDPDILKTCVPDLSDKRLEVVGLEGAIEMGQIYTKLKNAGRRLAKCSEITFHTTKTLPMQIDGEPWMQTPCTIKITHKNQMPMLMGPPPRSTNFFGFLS
Assay: In vitro DGKα inhibition assay (ADP-Glo)
Settings: His-tagged human recombinant DGKα 0.1 nM, 50 μM ATP, 20 μM DLG, 90 minute incubation

These recorded examples may help you get a feel for the data.
Compound structure string | IC50
COCCN1C(=O)[C@H]2CN(C(c3ccc(F)cc3)c3ccc(F)cc3)[C@H](C)CN2c2c1c(=O)n(C)c1ccc(C#N)nc21 | 40 to 200 nM
Cc1ccc2c(n1)c1c(c(=O)n2C)N(C)C(=O)[C@H]2CN(C(c3ccc(F)cc3)c3ccc(F)cc3)[C@H](C)CN12 | ≤ 40 nM

API: the following record is the query input.
QUERY: Dear colleague, I am looking for the recorded IC50 of the following compound: `C[C@@H]1CN2c3c(c(=O)n(C)c4ccc(-c5cnn(C)c5)nc34)N(C)C(=O)[C@H]2CN1C(c1ccc(F)cc1)c1ccc(F)cc1`
RESULT: ≤ 40 nM

Values compiled from patent US12600723B2.
